The measured values listed here are drawn from ChEMBL document CHEMBL1157317.

Property: IC50; scope: individual compounds
Measured Target: Human immunodeficiency virus type 1 integrase (Human immunodeficiency virus 1)
Sequence (Q7ZJM1 whole entry): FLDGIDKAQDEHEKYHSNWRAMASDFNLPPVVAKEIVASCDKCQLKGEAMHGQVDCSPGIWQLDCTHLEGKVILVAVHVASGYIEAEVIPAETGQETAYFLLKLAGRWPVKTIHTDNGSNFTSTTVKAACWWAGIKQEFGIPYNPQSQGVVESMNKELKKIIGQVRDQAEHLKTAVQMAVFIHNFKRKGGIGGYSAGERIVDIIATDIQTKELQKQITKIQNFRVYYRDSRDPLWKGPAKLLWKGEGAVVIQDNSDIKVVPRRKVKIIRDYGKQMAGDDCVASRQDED
Assay Protocol: Inhibition of HIV1 recombinant integrase expressed in Escherichia coli
Write the value in µM as a bare number.

Illustrative cases are given below, each with its answer.
[[record]]
chemical_smiles = "O=C(/C=C/c1ccc(O)c(O)c1)O[C@@H]1C[C@](O)(C(=O)O)C[C@@H](OC(=O)/C=C/c2ccc(O)c(O)c2)[C@H]1O"
measured_attribute = "IC50"
readout_number = 11.4

[[record]]
chemical_smiles = "COC(=O)[C@@]1(O)C[C@@H](OC(=O)/C=C/c2ccc(O)c(O)c2)[C@H](O)[C@H](OC(=O)/C=C/c2cc(OC)c(O)c(OC)c2)C1"
measured_attribute = "IC50"
readout_number = 41.1

[[record]]
chemical_smiles = "O=C(/C=C/c1ccc(O)c(O)c1)O[C@H]1[C@H](O)C[C@](O)(C(=O)O)C[C@H]1OC(=O)/C=C/c1ccc(O)c(O)c1"
measured_attribute = "IC50"
readout_number = 10.5


IN: Param item = `COC(=O)[C@]1(O)C[C@@H](O)[C@@H](OC(=O)/C=C/c2cc(OC)c(O)c(OC)c2)[C@H](OC(=O)/C=C/c2ccc(O)c(O)c2)C1` ; retrieve measured IC50.
OUT: 33.8
